target: mouse NMDA receptor (NR1 subunit and NR2B subunit co-expressed in HEK293 cells) (Mus musculus, UniProt P35438+Q01097); experiment: Expression of NMDA receptor and measurement of Ca ion flow in amount (HEK293 cells, Fluo-3/AM, FDSS3000); conditions: Ca ion flow in induced with glutamic acid 20 μM/glycine 2 μM, read-out: Ca2+ 1050
Sequence (Q01097 27-1482, other chains not shown): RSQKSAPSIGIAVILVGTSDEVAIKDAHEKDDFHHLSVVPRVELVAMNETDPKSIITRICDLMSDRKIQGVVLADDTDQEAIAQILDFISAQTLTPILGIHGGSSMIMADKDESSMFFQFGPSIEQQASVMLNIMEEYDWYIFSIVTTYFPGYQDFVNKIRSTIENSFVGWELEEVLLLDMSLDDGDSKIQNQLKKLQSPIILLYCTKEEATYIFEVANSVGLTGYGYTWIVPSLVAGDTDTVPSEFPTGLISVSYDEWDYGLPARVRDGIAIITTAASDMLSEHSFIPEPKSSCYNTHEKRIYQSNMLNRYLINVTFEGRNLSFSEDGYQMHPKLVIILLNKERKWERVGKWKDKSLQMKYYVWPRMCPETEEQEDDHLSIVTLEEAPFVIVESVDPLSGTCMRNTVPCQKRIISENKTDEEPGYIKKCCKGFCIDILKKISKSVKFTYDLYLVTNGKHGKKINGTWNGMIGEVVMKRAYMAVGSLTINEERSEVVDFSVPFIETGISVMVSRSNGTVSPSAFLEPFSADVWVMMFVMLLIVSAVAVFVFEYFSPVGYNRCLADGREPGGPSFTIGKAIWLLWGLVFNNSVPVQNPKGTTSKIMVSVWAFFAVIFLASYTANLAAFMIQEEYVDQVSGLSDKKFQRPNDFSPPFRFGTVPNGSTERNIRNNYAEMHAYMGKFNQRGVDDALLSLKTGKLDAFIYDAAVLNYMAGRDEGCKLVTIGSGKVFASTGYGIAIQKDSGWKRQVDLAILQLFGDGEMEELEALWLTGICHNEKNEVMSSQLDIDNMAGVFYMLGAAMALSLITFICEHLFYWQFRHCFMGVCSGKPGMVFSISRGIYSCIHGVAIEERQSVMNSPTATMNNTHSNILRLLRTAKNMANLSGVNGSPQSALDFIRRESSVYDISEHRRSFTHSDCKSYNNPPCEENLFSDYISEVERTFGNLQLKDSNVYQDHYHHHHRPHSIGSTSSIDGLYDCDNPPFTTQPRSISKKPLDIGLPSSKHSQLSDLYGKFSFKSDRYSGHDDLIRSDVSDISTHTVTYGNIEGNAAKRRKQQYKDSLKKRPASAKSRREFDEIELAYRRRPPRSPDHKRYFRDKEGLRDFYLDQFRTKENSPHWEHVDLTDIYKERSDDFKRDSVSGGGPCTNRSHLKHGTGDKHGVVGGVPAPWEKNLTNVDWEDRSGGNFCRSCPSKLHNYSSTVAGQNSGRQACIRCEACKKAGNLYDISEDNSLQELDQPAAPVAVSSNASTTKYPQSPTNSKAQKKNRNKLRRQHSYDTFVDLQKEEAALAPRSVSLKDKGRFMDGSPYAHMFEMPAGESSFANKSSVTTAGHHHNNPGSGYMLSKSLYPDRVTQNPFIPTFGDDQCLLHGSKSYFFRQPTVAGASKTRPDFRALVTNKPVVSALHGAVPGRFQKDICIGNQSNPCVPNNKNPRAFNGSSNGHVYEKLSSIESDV
In plain terms, low IC50, meaning strictly below 9 nM, gives Condition met, and everything else gives Condition not met.

Q: Report whether reported IC50 is lower than 9 nM (strictly) for COc1c(F)cc(N2CCN(C(=O)CNc3ccc4[nH]c(=O)oc4c3)CC2)cc1F [Compound I-7]
Result: Condition not met

Q: Report whether reported IC50 is lower than 9 nM (strictly) for C[C@@H]1CN(c2ccc(Cl)cc2)CCN1C(=O)CNc1ccc2[nH]c(=O)oc2c1 [Compound I-15]
Result: Condition met

Q: Report whether reported IC50 is lower than 9 nM (strictly) for C[C@@H]1CN(C(=O)C(=O)Nc2ccc3[nH]c(=O)oc3c2)CCN1c1cc(F)cc(F)c1 [Compound I-13]
Result: Condition not met

Q: Report whether reported IC50 is lower than 9 nM (strictly) for Cc1ccc(N2CCN(C(=O)C(=O)Nc3ccc4[nH]c(=O)oc4c3)[C@H](C)C2)cc1F [Compound I-27]
Result: Condition met

Q: Report whether reported IC50 is lower than 9 nM (strictly) for Cc1cc(N2CCN(C(=O)C(=O)Nc3ccc4[nH]c(=O)oc4c3)CC2)ccc1F [Compound I-46]
Result: Condition not met

Q: Report whether reported IC50 is lower than 9 nM (strictly) for COc1c(F)cc(N2CCN(CC(=O)Nc3ccc4[nH]c(=O)oc4c3)CC2)cc1F [Compound I-56]
Result: Condition not met

Q: Report whether reported IC50 is lower than 9 nM (strictly) for COc1c(F)cc(N2CCN(C(=O)CNc3ccc4[nH]c(=O)oc4c3)C[C@H]2C)cc1F [Compound I-43]
Result: Condition not met

Q: Report whether reported IC50 is lower than 9 nM (strictly) for O=C(Nc1ccc2[nH]c(=O)oc2c1)C(=O)N1CCN(c2ccc(OCC(F)(F)F)cc2)CC1 [Compound I-21]
Result: Condition not met

Q: Report whether reported IC50 is lower than 9 nM (strictly) for C[C@@H]1CN(C(=O)CNc2ccc3[nH]c(=O)oc3c2)CCN1c1ccc(Cl)c(F)c1 [Compound I-17]
Result: Condition met

Q: Report whether reported IC50 is lower than 9 nM (strictly) for Cc1cc(N2CCN(C(=O)C(=O)Nc3ccc4[nH]c(=O)oc4c3)C[C@H]2C)ccc1Cl [Compound I-41]
Result: Condition met

Q: Report whether reported IC50 is lower than 9 nM (strictly) for Cc1cc(N2CCN(C(=O)C(=O)Nc3ccc4[nH]c(=O)oc4c3)[C@H](C)C2)ccc1Cl [Compound I-40]
Result: Condition not met

Q: Report whether reported IC50 is lower than 9 nM (strictly) for Cc1ccc(N2CCN(C(=O)C(=O)Nc3ccc4[nH]c(=O)oc4c3)CC2)cc1 [Compound I-18]
Result: Condition not met

Q: Report whether reported IC50 is lower than 9 nM (strictly) for C[C@@H]1CN(c2ccc(Cl)cc2)CCN1CC(=O)Nc1ccc2[nH]c(=O)oc2c1 [Compound I-53]
Result: Condition not met

====

molecular target: mouse NMDA receptor (NR1 subunit and NR2B subunit co-expressed in HEK293 cells) (Mus musculus, UniProt P35438+Q01097); experiment: Expression of NMDA receptor and measurement of Ca ion flow in amount (HEK293 cells, Fluo-3/AM, FDSS3000); conditions: Ca ion flow in induced with glutamic acid 20 μM/glycine 2 μM, read-out: Ca2+ 1050
In plain terms, low IC50, meaning strictly below 20 nM, gives 1 (yes), and everything else gives 0 (no).

Q: Report whether reported IC50 is lower than 20 nM (strictly) for `CO/N=C/c1ccc(N2CCN(C(=O)C(=O)Nc3ccc4[nH]c(=O)oc4c3)[C@H](C)C2)cc1`
Result: 0 (no)

Q: Report whether reported IC50 is lower than 20 nM (strictly) for `Cc1ccc(N2CCN(C(=O)C(=O)Nc3ccc4[nH]c(=O)oc4c3)CC2)cc1F`
Result: 1 (yes)

Q: Report whether reported IC50 is lower than 20 nM (strictly) for `C[C@@H]1CN(C(=O)C(=O)Nc2ccc3[nH]c(=O)oc3c2)CCN1c1ccc(OCC(F)(F)F)cc1`
Result: 0 (no)

Q: Report whether reported IC50 is lower than 20 nM (strictly) for `Cc1ccc(N2CCN(C(=O)C(=O)Nc3ccc4[nH]c(=O)oc4c3)[C@H](C)C2)cc1Cl`
Result: 1 (yes)

Q: Report whether reported IC50 is lower than 20 nM (strictly) for `C[C@@H]1CN(c2ccc(OCC(F)(F)F)cc2)CCN1C(=O)C(=O)Nc1ccc2[nH]c(=O)oc2c1`
Result: 1 (yes)

Q: Report whether reported IC50 is lower than 20 nM (strictly) for `COc1c(F)cc(N2CCN(C(=O)CNc3ccc4[nH]c(=O)oc4c3)[C@H](C)C2)cc1F`
Result: 1 (yes)

Q: Report whether reported IC50 is lower than 20 nM (strictly) for `O=C(NCCN1CCN(c2ccc(Cl)cc2)CC1)c1ccc2[nH]c(=O)oc2c1`
Result: 1 (yes)

Q: Report whether reported IC50 is lower than 20 nM (strictly) for `COCc1ccc(N2CCN(C(=O)C(=O)Nc3ccc4[nH]c(=O)oc4c3)CC2)cc1F`
Result: 0 (no)

Q: Report whether reported IC50 is lower than 20 nM (strictly) for `COCc1ccc(N2CCN(C(=O)C(=O)Nc3ccc4[nH]c(=O)oc4c3)C[C@H]2C)cc1`
Result: 0 (no)

Q: Report whether reported IC50 is lower than 20 nM (strictly) for `Cc1cc(N2CCN(C(=O)C(=O)Nc3ccc4[nH]c(=O)oc4c3)C[C@H]2C)ccc1F`
Result: 1 (yes)

Q: Report whether reported IC50 is lower than 20 nM (strictly) for `Cc1ccc(N2CCN(C(=O)C(=O)Nc3ccc4[nH]c(=O)oc4c3)C[C@H]2C)cc1F`
Result: 1 (yes)
